# credit: patent US11261174B2

molecular target: LPA1 (Homo sapiens, UniProt Q92633); assay: LPA1 functional antagonist assay (LPA-induced calcium flux); conditions: CHO cells overexpressing human LPA1; calcium flux induced by 10 nM LPA; read-out: hLPA1 IC50
Sequence (Q92633 whole entry): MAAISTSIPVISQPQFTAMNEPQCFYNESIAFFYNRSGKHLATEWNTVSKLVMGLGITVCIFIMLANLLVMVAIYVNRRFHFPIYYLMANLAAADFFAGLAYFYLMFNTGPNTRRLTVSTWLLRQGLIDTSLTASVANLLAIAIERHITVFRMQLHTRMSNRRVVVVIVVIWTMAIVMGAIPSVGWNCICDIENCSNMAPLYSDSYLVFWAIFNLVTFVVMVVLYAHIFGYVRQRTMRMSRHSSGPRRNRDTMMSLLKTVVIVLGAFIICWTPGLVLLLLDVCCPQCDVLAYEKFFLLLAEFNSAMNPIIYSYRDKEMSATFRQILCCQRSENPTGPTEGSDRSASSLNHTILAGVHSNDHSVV
recorded-endpoint: pIC50
pIC50 here: minus log base 10 of the concentration, concentration in moles per litre.

Past entries and their recorded results:
{"molecule": "CCCCN(C)C(=O)OCc1c(-c2ccc(O[C@H]3CCC[C@H](C(=O)O)C3)c(C)n2)cnn1C", "target": "LPA1 (Homo sapiens, UniProt Q92633)", "pIC50": 7.80}
{"molecule": "Cc1nc(-c2cnn(C)c2COC(=O)N(C)C2CCCCC2)ncc1O[C@H]1CCC[C@H](C(=O)O)C1", "target": "LPA1 (Homo sapiens, UniProt Q92633)", "pIC50": 7.03}
{"molecule": "Cc1nc(-c2cnn(C)c2COC(=O)N(C)CC2CC2)ncc1O[C@H]1CCC[C@H](C(=O)O)C1", "target": "LPA1 (Homo sapiens, UniProt Q92633)", "pIC50": 6.53}

Query string: Report pIC50, nothing else, for this molecule: CCCN(C)C(=O)OCc1c(-c2ncc(O[C@H]3CCC[C@H](C(=O)O)C3)c(CC)n2)cnn1C
Result string: 5.90

Query string: Indicate its recorded pIC50; the molecule in question is CCCCCN(C)C(=O)OCc1c(-c2ncc(O[C@H]3CCC[C@H](C(=O)O)C3)c(C)n2)cnn1C
Result string: 7.09

Query string: Quick one: give measured pIC50 for CCC(C)N(C)C(=O)OCc1c(-c2ccc(O[C@H]3CCC[C@H](C(=O)O)C3)cn2)cnn1C (stereo partly shown)
Result string: 6.40

Query string: Hello, please tell me recorded pIC50 for this one: Cc1nc(-c2cnn(C)c2COC(=O)N(C)[C@H](C)C2CC2)ccc1O[C@H]1CCC[C@H](C(=O)O)C1
Result string: 7.32

----------
molecular target: LPA1 (Homo sapiens, UniProt Q92633); assay: LPA1 functional antagonist assay (LPA-induced calcium flux); conditions: CHO cells overexpressing human LPA1; calcium flux induced by 10 nM LPA; read-out: hLPA1 IC50
recorded-endpoint: IC50 (nM)
The response must be a number in nM with no trailing unit.

Please review the entries below; each comes with its answer.
{"compound": "Cc1nc(-c2cnn(C)c2COC(=O)N(C)Cc2ccccc2)ncc1O[C@H]1CCC[C@H](C(=O)O)C1 [Example 72]", "endpoint-value": 60}
{"compound": "C[C@H](C1CC1)N(C)C(=O)OCc1c(-c2ccc(O[C@H]3CCC[C@H](C(=O)O)C3)cc2)cnn1C [Example 58]", "endpoint-value": 38}

Field: next compound
Query string: State the measured IC50 (LPA1 (Homo sapiens, UniProt Q92633)) of Cc1nc(-c2cnn(C)c2COC(=O)N(C)C2CCCC2)ccc1O[C@H]1CCC[C@H](C(=O)O)C1 [Example 5]
Result string: 30

----------
biological target: LPA1 (Homo sapiens); assay: LPA1 functional antagonist assay (LPA-induced calcium flux); details: CHO cells overexpressing human LPA1; calcium flux induced by 10 nM LPA; read-out: hLPA1 IC50
I'd appreciate it if you marked entries 1 (yes) when IC50 is lower than 30 nM and 0 (no) when it is not.

See these solved cases before continuing.
{"molecule": "Cc1nc(-c2cnn(C)c2COC(=O)N(C)CC2CCC2)ncc1O[C@H]1CCC[C@H](C(=O)O)C1 [Example 80]", "target": "LPA1 (Homo sapiens)", "answer-label": "0 (no)"}
{"molecule": "CN(CCC1CC1)C(=O)OCc1c(-c2ccc(O[C@@H]3CCC[C@@H](C(=O)O)C3)cn2)cnn1C (racemic) [Example 32]", "target": "LPA1 (Homo sapiens)", "answer-label": "0 (no)"}

Query string: Quick check: does Cc1nc(-c2cnn(C)c2COC(=O)N(C)Cc2cccc(F)c2)ccc1O[C@H]1CCC[C@H](C(=O)O)C1 [Example 16] have IC50 under 30 nM?
Result string: 1 (yes)

Query string: Does the reported IC50 of CCCCN(C)C(=O)OCc1c(-c2cnc(O[C@H]3CCC[C@H](C(=O)O)C3)c(C)n2)cnn1C (racemic) [Example 7] stay below 30 nM?
Result string: 0 (no)

Query string: Given the entry Cc1nc(-c2cnn(C)c2COC(=O)N(C)C2CCCC2)ncc1O[C@H]1CCC[C@H](C(=O)O)C1 [Example 71] , would its reported IC50 be below 30 nM?
Result string: 0 (no)

Query string: State whether 30 nM exceeds IC50 recorded for Cc1nc(-c2cnn(C)c2COC(=O)N(C)Cc2ccccc2)cnc1O[C@H]1CCC[C@H](C(=O)O)C1 [Example 8] .
Result string: 0 (no)

Query string: Given the entry CN(CC1CCC1)C(=O)OCc1c(-c2ccc(O[C@H]3CCC[C@H](C(=O)O)C3)cc2)cnn1C [Example 52] , would its reported IC50 be below 30 nM?
Result string: 0 (no)

Query string: In the record for CN(CC1CC1)C(=O)OCc1c(-c2ccc(O[C@H]3CCC[C@H](C(=O)O)C3)cn2)cnn1C [Example 4] , is IC50 less than 30 nM?
Result string: 0 (no)

Query string: Given CCCCN(C)C(=O)OCc1c(-c2ccc(O[C@H]3CCC[C@H](C(=O)O)C3)cc2)cnn1C [Example 64] , is recorded IC50 strictly lower than 30 nM?
Result string: 1 (yes)

Query string: # strict comparison: is reported IC50 < 30 nM? input = CCc1nc(-c2cnn(C)c2COC(=O)N(C)CC2CC2)ncc1O[C@H]1CCC[C@H](C(=O)O)C1 [Example 85]
Result string: 0 (no)

Query string: Find out if reported IC50 for Cc1nc(-c2cnn(C)c2COC(=O)N(C)Cc2ccccc2)ccc1O[C@@H]1CCC[C@@H](C(=O)O)C1 (racemic) [Example 27] is less than 30 nM
Result string: 1 (yes)

Query string: Consider the molecule CCC(C)N(C)C(=O)OCc1c(-c2ccc(O[C@H]3CCC[C@H](C(=O)O)C3)cc2)cnn1C (some centres unmarked) [Example 53] . Is its IC50 strictly less than 30 nM?
Result string: 0 (no)
